Experiment: sensitizers of A549 cells to miR-34 induction, primary screen, imaging, A549 dox-inducible miR-34, nuclei and caspase counts (AID 1347080)
Details: A549 miR-34 inducible, Hoechst nuclei count, 48 h; measured here: total cells without miR-34 induction
endpoint-label: cell count
Just the number.

| molecule | cell count |
| --- | --- |
| NC(=O)COc1c(F)cc(SCCNS(=O)(=O)c2ccccc2)cc1F | 9360 |
| CC1CC[C@H]2C(C)C(=O)O[C@@H]3O[C@@]4(C)CC[C@@H]1[C@]32OO4 (some centres undefined) | 7540 |
| COC(=O)/C=C/C(=O)N[C@@H]1CC[C@@]2(O)[C@H]3Cc4ccc(O)c5c4[C@@]2(CCN3CC2CC2)[C@H]1O5 | 8010 |

# input for lookup
Reported cell count of CC1=C(O)C(=O)C=C2C1=CC=C1[C@@]2(C)CC[C@@]2(C)[C@@H]3C[C@](C)(C(=O)O)CC[C@]3(C)CC[C@]12C : 1040

###

Target: ATP-dependent translocase ABCB1 (Homo sapiens) (UniProt P08183)
Sequence (P08183 whole entry, looked up): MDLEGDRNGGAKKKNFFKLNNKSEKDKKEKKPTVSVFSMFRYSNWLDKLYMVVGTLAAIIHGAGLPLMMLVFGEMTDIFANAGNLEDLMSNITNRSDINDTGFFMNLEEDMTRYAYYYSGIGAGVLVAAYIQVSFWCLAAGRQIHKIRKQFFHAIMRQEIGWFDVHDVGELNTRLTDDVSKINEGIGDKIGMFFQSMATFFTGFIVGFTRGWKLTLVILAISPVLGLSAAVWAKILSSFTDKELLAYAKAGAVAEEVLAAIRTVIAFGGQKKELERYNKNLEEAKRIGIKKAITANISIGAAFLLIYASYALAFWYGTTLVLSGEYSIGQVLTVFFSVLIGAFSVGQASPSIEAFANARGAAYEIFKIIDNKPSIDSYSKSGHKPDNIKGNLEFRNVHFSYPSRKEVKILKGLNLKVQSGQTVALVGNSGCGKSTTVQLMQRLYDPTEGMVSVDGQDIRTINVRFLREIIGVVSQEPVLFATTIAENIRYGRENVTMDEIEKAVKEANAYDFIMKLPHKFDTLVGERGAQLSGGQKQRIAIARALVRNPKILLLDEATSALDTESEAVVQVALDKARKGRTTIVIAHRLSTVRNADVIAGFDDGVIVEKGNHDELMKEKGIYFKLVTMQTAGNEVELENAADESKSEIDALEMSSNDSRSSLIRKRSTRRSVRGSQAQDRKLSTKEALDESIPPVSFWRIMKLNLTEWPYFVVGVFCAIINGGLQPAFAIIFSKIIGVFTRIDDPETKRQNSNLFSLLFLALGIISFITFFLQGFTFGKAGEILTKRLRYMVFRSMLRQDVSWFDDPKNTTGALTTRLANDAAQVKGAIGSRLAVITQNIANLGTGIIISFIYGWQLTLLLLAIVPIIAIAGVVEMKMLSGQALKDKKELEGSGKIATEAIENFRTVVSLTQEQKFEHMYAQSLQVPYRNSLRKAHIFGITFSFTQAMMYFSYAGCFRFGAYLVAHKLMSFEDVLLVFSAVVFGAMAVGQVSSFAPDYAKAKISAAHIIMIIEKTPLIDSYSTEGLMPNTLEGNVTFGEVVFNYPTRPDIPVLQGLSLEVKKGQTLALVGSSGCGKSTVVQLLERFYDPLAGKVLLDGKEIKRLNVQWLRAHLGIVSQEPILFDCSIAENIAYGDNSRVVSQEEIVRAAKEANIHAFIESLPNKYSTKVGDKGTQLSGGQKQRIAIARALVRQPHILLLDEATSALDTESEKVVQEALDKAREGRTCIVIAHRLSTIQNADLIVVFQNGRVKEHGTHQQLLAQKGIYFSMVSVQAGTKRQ
Experiment: MDR1 (ABCB1) efflux transporter inhibition, cell-based (AID 377)
Conditions: MDR1-expressing cells, fluorescent substrate accumulation slope; concentration not given here
Results filed as inconclusive are left out. The source made the active and inactive calls. Cut-off read from the data, not from the text of the source: active = fluorescence slope change above about 50%; inconclusive = mostly about 31% to 49%; inactive = weaker than that.
Please reply with one of these outcomes: active, inactive

Here's what some known entries look like.
| compound | class |
| --- | --- |
| C=C1C2C[C@@]3(C4CC5C6(C3C[C@@H]2O)[C@@H](O)CC[C@@]5(C)CN(CC)[C@H]46)[C@@H]1O (stereo partly drawn) | inactive |
| Cc1cccc(C)c1NC1=NCCCS1 | inactive |

Now, please, on to the next compound.
Dear all, I need the recorded test outcome for Clc1ccc(C(OCCN2CCCCC2)c2ccccc2)cc1 (stereo not drawn) , thank you.
active

###

Assay: survival rescue of mitochondrial mutant cells in low glucose, primary screen, MELAS cybrids, Rieske KO mouse fibroblasts, CellTiter-Glo (AID 1508586);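 also: z relative to plate mean and SD of compound and empty wells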
Details: MELAS cybrid survival, CellTiter-Glo 48 h, stronger effect = higher value
Note to self: class labels come from recorded z-score, ranges listed here: band 1 = under -0.5, band 2 = from -0.5 up to 0.2, band 3 = 0.2 and over

Consider the worked cases shown below.
| compound | class |
| --- | --- |
| C[C@H](N)[C@H](O)c1ccc(O)c(O)c1 | band 1 |
| C[C@@H]1C[C@@H]([C@H](O)CC2CC(=O)NC(=O)C2)C(=O)[C@@H](C)C1 | band 2 |
| C[C@]12CC(=CO)C(=O)C[C@@H]1CC[C@@H]1[C@@H]2CC[C@@]2(C)[C@H]1CC[C@]2(C)O | band 2 |

Categorize the following entry: O=C(O)Cc1ccccc1
band 3

Sort CC[C@@H]1C(=O)OC[C@@H]1Cc1cncn1C into one of the categories.
band 3

Tag the class for CC(C)(N)Cc1ccccc1
band 2

Which z-score band matches CC(Cc1ccc(O)cc1)NCC(O)c1cc(O)cc(O)c1 (stereo unspecified) ?
band 3

###

Listing: GLP1 secretion stimulation of selected compounds
Experiment: glucagon-like peptide 1 release enhancers, primary assay, NCI-H716 cell line, NPC library (AID 1117341)
Conditions: NCI-H716 cells, at 10 µM, stronger effect = higher value
Respond with the bare value in %.

Worked set:
| compound | GLP1 secretion stimulation (%) |
| --- | --- |
| CC(NC(C)(C)C)C(=O)c1cccc(Cl)c1 (configuration not stated) | 0.3 |
| CCNCC(O)c1cccc(O)c1 (configuration not stated) | -2.7 |
| O=C1OC(CCN2CCCCC2)OC1(c1ccccc1)c1ccccc1 (configuration not stated) | 4.4 |
| NC1=NC(=O)C(c2ccccc2)O1 (configuration not stated) | 3.5 |
| CCN(CC)Cc1nccn1-c1ccc([N+](=O)[O-])cc1C(=O)c1ccccc1Cl | -0.3 |
| CN1C(=S)CN=C(c2ccccc2)c2cc(Cl)ccc21 | 1.6 |

Next compound, GLP1 secretion stimulation to be filled in.
Data point: O=c1[nH]c2cc(Cl)ccc2n1C1CCNCC1 ; GLP1 secretion stimulation = 10.2

###

Assay: HepG2 cytotoxicity, primary screen, cytotoxicity control for P. falciparum antimalarial project, cell-based, ATP luminescence (AID 2303);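 also: 0% = DMSO wells and 100% = digitonin-killed cells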
Settings: HepG2 viability, 24-48 h, at 10 µM, stronger effect = higher value
true if inhibition is below 10%. false if not; exact matches included in false.

Some solved entries appear below for comparison.
| compound | class |
| --- | --- |
| COc1cc(CC(C)NCC(O)c2cccc(C(F)(F)F)c2)ccc1OCc1ccccc1 (centres undefined) | true |
| CC[C@H]1CN2CC[C@H]1C[C@H]2[C@H](O)c1cc(-c2ccccc2C)nc2ccc(OC)cc12 | false |
| CC[C@H]1CN2CC[C@@H]1C[C@H]2[C@H](O)c1cc(N2CCC(O)(c3ccccc3)CC2)nc2ccc(OC)cc12 | false |
| O=C(/C=C/c1ccc(Cl)c(Cl)c1)NC1CCC(CN2CCC(c3c[nH]c4cc(O)ccc34)CC2)CC1 (centres undefined) | false |
| COc1ccc(OC)c(C(O)CNC(C)C)c1 (centres undefined) | true |

is_below(inhibition, 10%) for COC(=O)c1ccc(CC(C)NCC(O)c2ccc(F)c(Cl)c2)cc1 (centres undefined) ?
true

Would you kindly verify if inhibition of CO[C@@H]1C[C@@H](C(=O)Nc2ccccc2)N(c2ccc(C#N)c3ccccc23)C1 is strictly less than 10%?
true

Is the reported inhibition for CCCCC1(NC(=O)[C@H](CC(C)C)Nc2ccc(C#N)c3ccccc23)CCCCC1 strictly below 10%?
false

###

Test: differential killing of epithelial or mesenchymal cells, primary screen, imaging, PC-3E GFP, TEM4-18 mCherry, co-culture (AID 1345086);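 also: cells exposed to compound for 72 h before imaging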
Details: imaging cell counts, measured here: mesenchymal TEM4-18 mCherry cell survival, at 1 µM
In this section we review reported normalised cell number values for a set of compounds.
Just the number, please, no unit after it.

| compound | normalised cell number |
| --- | --- |
| O=P1(N(CCCl)CCCl)NCCCO1 (stereo not given) | 1.48 |
| CCC(=O)O[C@H]1CCC2C3CCC4=CC(=O)CC[C@]4(C)C3CC[C@@]21C (stereo not given in full) | 1.48 |
| C[C@@H]1C(=O)OC2[C@H](O)C34[C@@H]5OC(=O)[C@@]3(OC3OC(=O)[C@H](O)[C@@]34[C@H](C(C)(C)C)[C@H]5O)[C@]21O (stereo not given in full) | 0.93 |

The compound Clc1ccc(COC(Cn2ccnc2)c2ccc(Cl)cc2Cl)cc1 (stereo not given) showed normalised cell number equal to 1.04

normalised cell number reported for this compound COc1ccc(C[C@H]2NC[C@H](O)[C@H]2OC(C)=O)cc1 : 0.1

Field normalised cell number (entry CC(C)[C@@H]1CC[C@](O)(CCl)[C@@H]2C(=O)OCC(C(=O)O)=C[C@H]21 ) reads 0.96

Lookup result for N#C/C(=C\c1cccc(O)c1)C(=O)O ; measured normalised cell number: 0.96

Entry OCC(O)[C@H]1O[C@@H]2O[C@H](C(Cl)(Cl)Cl)O[C@@H]2[C@H]1O (stereo not given in full) ; normalised cell number = 0.85

The recorded normalised cell number for N#Cc1c(Cl)c(Cl)c(Cl)c(C#N)c1Cl is 0.04

Looking up C=C[C@H]1CN2CC[C@H]1C[C@H]2[C@H](O)c1ccnc2ccccc12 , I found its normalised cell number recorded as 1.12

###

Each entry below carries its recorded activity remaining.
System: Aerobactin synthetase IucA (Klebsiella pneumoniae hvKP1)
Test: Biochemical IucA enzyme inhibition primary screen of the Spectrum library (AID 1346200);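 also: 100% = wells without compound and 0% = wells lacking enzyme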
Settings: malachite green pyrophosphate, A620, at 8 µM, stronger effect = lower value
Use % as the unit, but write only the number.

Sample answers from the record:
| compound | activity remaining [%] |
| --- | --- |
| Nc1ncnc2c1ncn2[C@@H]1O[C@H](CO)[C@@H](O)[C@@H]1O | 107 |
| Cc1cc(O)c(C=O)c2c1C(=O)Oc1c(C)c(O)c3c(c1O2)C(O)OC3=O (stereo unspecified) | 113 |
| CCCCCCCCC(=O)NCc1ccc(O)c(OC)c1 | 92.7 |
| C=C(C)c1cc2cc(C(C)=O)c(O)cc2o1 | 104 |
| CCOC(=O)C(C)(N)Cc1ccc(O)c(O)c1 (stereo unspecified) | 105 |

# compound NS(=O)(=O)c1cc2c(cc1C(F)(F)F)NC(Cc1ccccc1)NS2(=O)=O (stereo unspecified) ; its activity remaining = 98.7

###

Target: NAD(+) hydrolase SARM1 (Homo sapiens) (UniProt Q6SZW1)
Sequence (Q6SZW1 whole entry, looked up): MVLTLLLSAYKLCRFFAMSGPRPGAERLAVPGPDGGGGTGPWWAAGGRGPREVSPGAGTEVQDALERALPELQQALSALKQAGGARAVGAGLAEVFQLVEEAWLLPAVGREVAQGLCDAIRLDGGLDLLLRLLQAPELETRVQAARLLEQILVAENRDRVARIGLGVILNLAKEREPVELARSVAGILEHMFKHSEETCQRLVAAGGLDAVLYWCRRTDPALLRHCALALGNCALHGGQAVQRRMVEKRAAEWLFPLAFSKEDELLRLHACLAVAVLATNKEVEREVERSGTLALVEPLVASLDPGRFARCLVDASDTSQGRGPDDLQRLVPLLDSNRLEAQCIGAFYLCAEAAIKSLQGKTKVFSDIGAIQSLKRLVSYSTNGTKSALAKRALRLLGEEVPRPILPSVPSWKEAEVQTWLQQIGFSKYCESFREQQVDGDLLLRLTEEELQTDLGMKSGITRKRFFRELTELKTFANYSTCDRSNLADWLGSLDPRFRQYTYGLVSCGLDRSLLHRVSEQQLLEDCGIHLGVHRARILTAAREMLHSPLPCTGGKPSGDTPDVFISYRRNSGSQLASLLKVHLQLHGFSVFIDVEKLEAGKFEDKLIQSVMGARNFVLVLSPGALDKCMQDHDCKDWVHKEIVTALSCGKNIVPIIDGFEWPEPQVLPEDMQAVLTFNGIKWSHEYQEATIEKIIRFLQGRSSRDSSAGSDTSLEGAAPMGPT
Experiment: SARM1 TIR NADase inhibitors, cell lysate, NAD-Glo luminescence (AID 1508614);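 also: higher remaining NAD means stronger inhibition of SARM1 NADase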
Conditions: SAM-TIR HEK293T lysate NADase, at 1 µM, stronger effect = higher value
Active and inactive are the calls of the source.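 The calls were made as follows: active = compound whose remaining NAD level is above about 45 nM (limit read from the data); inactive = the rest.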
# reported remaining NAD; entries follow

Answered cases to consult:
| molecule | result |
| --- | --- |
| O=[N+]([O-])c1cc([As](=O)(O)O)ccc1O | 10 nM (inactive) |
| CC[C@@H](CO)NC(=O)[C@@H]1C=C2c3cccc4[nH]cc(c34)C[C@H]2N(C)C1 | 10 nM (inactive) |
| COc1ccc(Cc2nccc3cc(OC)c(OC)cc23)cc1OC | 10 nM (inactive) |
| S=C=NCc1ccccc1 | 10 nM (inactive) |
| CCC1(c2ccc(N)cc2)CCC(=O)NC1=O (stereo unspecified) | 10 nM (inactive) |

// moving on: another record for remaining NAD
Recorded remaining NAD (molecule CC(C)[N+](C)(CCC(C(N)=O)(c1ccccc1)c1ccccc1)C(C)C ): 10 nM (inactive)
